tested on: LOX IMVI melanoma; experiment: NCI tumour cell line growth inhibition, 48 h
Known TGI of a selection of molecules
readout-label: TGI

| molecule | value-reported |
| --- | --- |
| NNC(=O)C(=O)N/N=C(\CCCC(=O)Nc1ccc(Cl)cc1)CC(=O)c1ccc(F)cc1 | > 100 µM |
| C=C(Cl)C(Cl)(CBr)CCC(Br)C(C)(C)Br (stereo not drawn) | 33.3 µM |
| COc1ccc(/C=C\c2cc(OC)c(OC)c(OC)c2)cc1OCC(=O)Nc1nc2ccc(F)cc2s1 | > 100 µM |

====

tested on: A498 renal; assay: NCI tumour cell line growth inhibition, 48 h
The entries below are paired with their reported TGI.
readout-label: TGI

| molecule | value-reported |
| --- | --- |
| CN=C1Nc2ccccc2C(=O)N2CSCC12 (configuration not stated) | > 100 µM |
| NS(=O)(=O)OC[C@H]1C[C@@H](Nc2ccnc3cc(-c4cccc(SC(F)(F)F)c4)nn23)[C@H](O)[C@@H]1O | 0.0262 µM |
| Cc1c(-c2cnccn2)ssc1=S | 59.7 µM |
| CN1C(=O)C2(C)SC1(c1ccccc1)C1C(=O)N(c3ccccc3)C(=O)C12 (configuration not stated) | > 100 µM |
| O=C(C(=O)c1cc2ccccc2[nH]1)c1cc2ccccc2[nH]1 | > 347 µM |
| C=CCC1(CN(C)C)CC/C(=C\c2ccc(OC)cc2)C1=O (configuration not stated) | > 100 µM |
| CSC12c3cc(C)n(-c4ccc([N+](=O)[O-])cc4)c3CC(C)(C)CN1C(=O)C2Oc1ccccc1 (configuration not stated) | > 100 µM |
| C=C(C)[C@H]1CC[C@@]2(C)C(C1)[C@H](C)CC[C@@H]2O (some centres not stated) | > 100 µM |
| CC(C)CC(NC(=O)C(C)(CI)Cc1ccccc1)C(=O)Nc1ccccc1 (configuration not stated) | > 100 µM |
| CCCCCCCCCCCCCCCC1=NCC[N+]1(CCO)CCO | 21.6 µM |
| Cc1ccc2c(=O)cc(-c3sccc3C)[nH]c2n1 | > 35 µM |
| COc1cccc(/C=N/n2c(Cc3ccccc3)n[nH]c2=O)c1 | > 100 µM |
| Nc1nc(Cl)cc(NCC2(O)CCC2)n1 | > 100 µM |
| OC1(C(Sc2cc(C(F)(F)F)cc(C(F)(F)F)c2)Sc2cc(C(F)(F)F)cc(C(F)(F)F)c2)C=CCCC1 (configuration not stated) | 4.58 µM |
| N#C/C(=C\c1cc(O)cc(O)c1)C(N)=O | > 100 µM |
| COC(=O)c1cc2c(=O)n(C)c3ccccc3n2c1C(=O)OC | > 100 µM |
| Oc1c(Br)cc(/C=C/c2ccnc(/C=C/c3cc(Br)c(O)c(Br)c3)c2)cc1Br | 54.4 µM |

====

tested on: CAKI-1 renal; experiment: NCI tumour cell line growth inhibition, 48 h; in the data active means GI50 below about 0.43 µM; inactive means the rest
Classes used: active, inactive

| input-smiles | target-entity | category |
| --- | --- | --- |
| O=c1c2ccccc2sc2c(NCCCNCCO)nc3ccccc3c12 | CAKI-1 renal | inactive |
| Cc1cc2nc(NCCN)n(Cc3ccc(F)c(Cl)c3)c2cc1C | CAKI-1 renal | inactive |
| Cc1cnc2n1S(=O)(=O)c1cc(C(=O)Nc3cccc4nsnc34)c(Cl)cc1S2 | CAKI-1 renal | inactive |
| COc1ccc2ncn(-c3cc(O[C@H](C)c4ccccc4C(F)(F)F)c(C(N)=O)s3)c2c1 | CAKI-1 renal | inactive |
| O=C1NC(=C(Cl)Cl)/C(=N/S(=O)(=O)N2CCCCC2)N1 | CAKI-1 renal | inactive |
| CCOC(=O)C1=CCCC[C@H]1S(=O)(=O)Nc1ccc(F)cc1Cl | CAKI-1 renal | inactive |
| CNC(=O)c1ccc(N2C(=S)N(c3cnc(C#N)c(C(F)(F)F)c3)C(=O)C23CCC3)cc1F | CAKI-1 renal | inactive |
| COc1ccc2c(c1)C(=O)c1c-2n(CCCN(C)C)c(=O)c2ccccc12 | CAKI-1 renal | active |
| Cc1c(C)n(CCCN2CCN(C)CC2)c2ccc(Oc3cccc(C(=O)N4CCN(CCc5ccc(F)cc5)CC4)c3)cc12 | CAKI-1 renal | inactive |
| Nc1nc(/C=C\c2ccc([N+](=O)[O-])s2)nc(N2CCN(c3ccccc3)CC2)n1 | CAKI-1 renal | inactive |

These entries and their values trace back to PubChem BioAssay (NCI).
